# target_entity: HLA-A*03:01
# assay_protocol: IEDB peptide-MHC binding, purified MHC/competitive/radioactivity; bounds were set here for any values at or beyond the usual limits of such assays
# experimental_conditions: source organism: Hepatitis B virus
quantity_measured: log10(IC50) (log10 of the value in nM)
Could you please treat all values as log10 of IC50 in nM?

Reference set (3 entries):
seq=FIIFLFILL target_entity=HLA-A*03:01 endpoint_value=2.98
seq=ILRGTSFVYV target_entity=HLA-A*03:01 endpoint_value=3.68
seq=SLYADSPSV target_entity=HLA-A*03:01 endpoint_value=3.31

Param item: `FLAPLPIHTA` ; param system: HLA-A*03:01; output log10(IC50): 3.61

Tested on HLA-A*03:01, the item `ILLLCLIFL` showed log10(IC50) equal to 2.80
